test: Plasma and brain concentration in samples of in vivo IP1 assay; design: species or system mouse; settings: mouse, plasma, oral, 3 mg/kg, 3 mg/kg p.o., M1KO mice, 3 h, mean±SD; read-out: Plasma concentration
testReadout: concentration at 3 h (ng/mL)
Answers are plain numbers, in ng/mL.

*Q* Query (compound): Cc1c(Cc2ccc(-n3cccn3)cc2)cc2c(c1F)CN([C@H]1COCC[C@@H]1O)C2=O [Compound D] ; field requested: concentration at 3 h
*A* 3260

###

target: UniProt:P11229; experiment: Ca2+ flux assay in CHO-K1 cells stably expressing human M1R (FLIPR), agonist and PAM mode, operational model fit; assay type: cell-based; settings: intrinsic agonistic efficacy, operational model
Record y whenever Log TB Mean is at 0.7 or higher; record n when lower.

Known results for compounds:
# compound, discreteLabel
data = [
    ("Cn1cc(-c2ccc(CN3Cc4cccc(OCCN5CCCCC5)c4C3=O)cc2)cn1", "n"),
    ("O=c1c2cn(Cc3ccc(-n4cccn4)cc3)c3ccccc3c-2nn1-c1ccccc1F [Compound E, reference compound]", "n"),
    ("Cn1cc(-c2ccc(Cc3cc4c(=O)n([C@H]5CCCC[C@@H]5O)cnc4c4ccccc34)cn2)cn1 [Compound C, reference compound]", "y"),
]

*Q* Hello, I need to know if Cn1cc(-c2ccc(CN3Cc4cccc(Oc5c(F)cccc5C#N)c4C3=O)cc2)cn1 has measured Log TB Mean not below 0.7. Thanks!
*A* n

*Q* Again, but for Cn1ccc(-c2ccc(CN3Cc4cccc(O[C@H]5CCCC[C@@H]5O)c4C3=O)cc2)n1
*A* y

###

Assay: Pharmacokinetics after oral administration to mice
Assay type: in vivo, mouse
Details: mouse, plasma, po, 30 mg/kg p.o., read-out: AUC0-4 h
Method: Plasma concentration of Compound B at 30 and 1000 mg/kg. Plasma samples were collected at 0.5, 1, 2, 4 and 6 h after oral treatment. Results represent the mean. n=3 per group.
testReadout: AUC(0-t) (ng·h/mL)
Answers are plain numbers, in ng·h/mL.

*Q* Query (compound): Cn1cc(-c2ccc(CN3Cc4cccc(Oc5c(F)cccc5C#N)c4C3=O)cc2)cn1 [Compound B] ; field requested: AUC(0-t)
*A* 800

###

molecular target: M3R (Homo sapiens); assay: Ca2+ flux assay in CHO-K1 cells expressing human M3R; format: cell-based; set-up: expressed in transfected cells; host or cells: CHO-K1; conditions: read-out: IP for M3R
Sequence (P20309 whole entry): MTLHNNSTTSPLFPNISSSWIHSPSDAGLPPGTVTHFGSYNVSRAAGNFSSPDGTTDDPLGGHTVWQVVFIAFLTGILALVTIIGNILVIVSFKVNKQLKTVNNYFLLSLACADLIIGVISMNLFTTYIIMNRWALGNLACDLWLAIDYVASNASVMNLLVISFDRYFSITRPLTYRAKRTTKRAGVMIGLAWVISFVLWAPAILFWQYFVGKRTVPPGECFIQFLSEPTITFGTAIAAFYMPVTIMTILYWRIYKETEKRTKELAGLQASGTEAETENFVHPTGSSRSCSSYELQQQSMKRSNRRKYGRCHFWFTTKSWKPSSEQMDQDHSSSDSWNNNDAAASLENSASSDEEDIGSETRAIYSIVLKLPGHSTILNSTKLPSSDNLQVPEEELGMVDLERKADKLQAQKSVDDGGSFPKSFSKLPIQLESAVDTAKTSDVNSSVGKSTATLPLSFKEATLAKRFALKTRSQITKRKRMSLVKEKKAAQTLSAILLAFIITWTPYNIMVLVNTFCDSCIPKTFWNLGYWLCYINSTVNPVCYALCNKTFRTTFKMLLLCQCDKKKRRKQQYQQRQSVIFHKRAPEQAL
Can you tell me EC50 for the items I'm about to list?

# compound, testReadout, result
rows = [
    ("Cc1c(Cc2ccc(-n3cccn3)cc2)cc2c(c1F)CN([C@H]1COCC[C@@H]1O)C2=O", "EC50", "> 10 µM"),
]

Now for a further compound.
*Q* Find the measured EC50: item Cn1cc(-c2ccc(Cc3cc4c(=O)n([C@H]5CCCC[C@@H]5O)cnc4c4ccccc34)cn2)cn1 [Compound C, reference compound] , target or system M3R (Homo sapiens).
*A* > 1 µM

###

Target: human M1R (Homo sapiens)
Sequence (P11229 1-460): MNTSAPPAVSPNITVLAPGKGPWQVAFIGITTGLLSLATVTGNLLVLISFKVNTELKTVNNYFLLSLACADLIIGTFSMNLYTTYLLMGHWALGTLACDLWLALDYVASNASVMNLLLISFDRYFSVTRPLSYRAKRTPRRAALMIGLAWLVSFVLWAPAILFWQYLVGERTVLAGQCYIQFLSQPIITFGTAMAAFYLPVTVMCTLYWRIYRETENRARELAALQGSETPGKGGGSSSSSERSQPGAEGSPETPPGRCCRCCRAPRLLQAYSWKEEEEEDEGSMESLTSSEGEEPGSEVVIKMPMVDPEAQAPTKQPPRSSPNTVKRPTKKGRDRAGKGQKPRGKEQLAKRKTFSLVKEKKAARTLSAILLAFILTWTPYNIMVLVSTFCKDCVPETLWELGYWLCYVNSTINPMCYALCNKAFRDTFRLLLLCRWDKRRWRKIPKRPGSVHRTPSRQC
Assay: Binding modulation assay, displacement of [3H]-pirenzepine by ACh, FreeStyle 293 cell membranes
Design: expressed in transfected cells; host or cells: FreeStyle 293 cells (transient), cell membranes
Conditions: affinity of the PAM to the free M1R; read-out: pKB Mean (converted)
# if measured Kb < 9 µM: condition met  # else: condition not met

# compound, discreteLabel
records = [
    ("Cn1cc(-c2ccc(Cc3cc4c(=O)n([C@H]5CCCC[C@@H]5O)cnc4c4ccccc34)cn2)cn1 [Compound C, reference compound]", "condition met"),
    ("Cn1cc(-c2ccc(CN3Cc4cccc(-c5ccn[nH]5)c4C3=O)cc2)cn1 [Compound G]", "condition not met"),
    ("Cn1cc(-c2ccc(CN3Cc4cccc(Oc5c(F)cccc5C#N)c4C3=O)cc2)cn1 [Compound B]", "condition met"),
    ("Cn1ccc(-c2ccc(CN3Cc4cccc(O[C@H]5CCCC[C@@H]5O)c4C3=O)cc2)n1 [Compound A]", "condition not met"),
]

*Q* Say whether its Kb is strictly beneath 9 µM. Entry: O=c1c2cn(Cc3ccc(-n4cccn4)cc3)c3ccccc3c-2nn1-c1ccccc1F [Compound E, reference compound]
*A* condition met

###

assay: Plasma and brain concentration in samples of in vivo IP1 assay; design: species or system mouse; conditions: mouse, plasma, oral, 10 mg/kg, 10 mg/kg p.o., M1KO mice, 3 h, mean±SD; read-out: Plasma concentration
testReadout: concentration at 3 h (µg/mL)
Numbers only, in µg/mL.

*Q* Query (compound): Cn1cc(-c2ccc(Cc3cc4c(=O)n([C@H]5CCCC[C@@H]5O)cnc4c4ccccc34)cn2)cn1 [Compound C, reference compound] ; field requested: concentration at 3 h
*A* 6.13

###

Experiment: Pharmacokinetics after oral administration to mice
Type: in vivo, mouse
Conditions: mouse, plasma, po, 30 mg/kg p.o.
Experimental: Plasma concentration of Compound B at 30 and 1000 mg/kg. Plasma samples were collected at 0.5, 1, 2, 4 and 6 h after oral treatment. Results represent the mean. n=3 per group.
testReadout: Tmax
A bare number is not enough; add the unit after it.

*Q* Query (molecule): Cn1cc(-c2ccc(CN3Cc4cccc(Oc5c(F)cccc5C#N)c4C3=O)cc2)cn1 ; field requested: Tmax
*A* 2 h

###

assay: Plasma and brain concentration in samples of in vivo IP1 assay; parameters: species or system mouse; details: mouse, brain, oral, 10 mg/kg, 10 mg/kg p.o., M1KO mice, 3 h, mean±SD; read-out: Brain concentration
testReadout: concentration at 3 h (ng/g)
Numbers only, in ng/g.

*Q* Query (compound): Cn1cc(-c2ccc(Cc3cc4c(=O)n([C@H]5CCCC[C@@H]5O)cnc4c4ccccc34)cn2)cn1 [Compound C, reference compound] ; field requested: concentration at 3 h
*A* 62.7

###

system: isolated mouse ileum; test: In vitro Magnus assay, EFS-induced ileum contraction; conditions: 1 μM, isolated mouse ileum with EFS
Can you tell me Ileum contraction at 1 μM (% of cont.) Mean for the items I'm about to list?

Recorded results for 3 compounds are shown here.
# compound, result
data = [
    ("Cn1cc(-c2ccc(CN3Cc4cccc(OCCN5CCCCC5)c4C3=O)cc2)cn1", "102 % of cont."),
    ("Cn1cc(-c2ccc(Cc3cc4c(=O)n([C@H]5CCCC[C@@H]5O)cnc4c4ccccc34)cn2)cn1 [Compound C, reference compound]", "104 % of cont."),
    ("Cn1cc(-c2ccc(CN3Cc4cccc(Oc5c(F)cccc5C#N)c4C3=O)cc2)cn1", "97 % of cont."),
]

Hey, can you go through the list below and give me Ileum contraction at 1 μM (% of cont.) Mean for every item?
1. Cn1cc(-c2ccc(CN3Cc4cccc(-c5ccn[nH]5)c4C3=O)cc2)cn1
2. Cn1ccc(-c2ccc(CN3Cc4cccc(O[C@H]5CCCC[C@@H]5O)c4C3=O)cc2)n1

*A*
1: 93 % of cont.; 2: 116 % of cont.

*Q* Query (compound): O=c1c2cn(Cc3ccc(-n4cccn4)cc3)c3ccccc3c-2nn1-c1ccccc1F [Compound E, reference compound] ; field requested: Ileum contraction at 1 μM (% of cont.) Mean
*A* 106 % of cont.

Values compiled from patent US12298319B2.
